biological target: HIV-1 CMU02 Env (CRF01_AE pseudovirus) (HIV-1); test: cell-based or functional assay
Assay Endpoint: IC50 (µg/mL), pseudovirus neutralization

Quick one: IC50 (µg/mL), pseudovirus neutralization for 1495_C14 (PGC14) (antibody, human IgG1, lambda, V domains shown) VH: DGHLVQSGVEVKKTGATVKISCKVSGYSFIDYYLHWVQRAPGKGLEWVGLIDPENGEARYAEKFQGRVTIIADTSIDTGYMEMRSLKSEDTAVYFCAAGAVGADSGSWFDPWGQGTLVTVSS VL: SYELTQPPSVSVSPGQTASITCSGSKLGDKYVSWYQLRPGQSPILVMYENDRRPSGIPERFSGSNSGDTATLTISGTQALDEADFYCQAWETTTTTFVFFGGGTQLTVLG ?
> 50 µg/mL

These data points were gathered from patent US20240132578A1.
